Origin of measurements: ChEMBL document CHEMBL3301472

Test: MMV: MTT Cytotoxicity Assay Day 7 pi of Assay #10 (NO washout), U87-CD4-CCR5 cells, % cell death @ 5mM compound
Format: toxicity, cell-based
Conditions: human, u87-cd4-ccr5, 5000 µM
% Cell Death by entry:

MOLECULE | % Cell Death
O=C(CCl)NCCOc1ccc(Cl)cc1Cl | 12
CC(C)OCc1cc(CN2CCN(c3cccc(Cl)c3)CC2)c(O)c2ncccc12 | 125
Cc1sc2ncnc(Sc3nc4ccccc4[nH]3)c2c1C | 27
CN(C)c1ccc(C(O)(c2ccc(N(C)C)cc2)c2ccc(N(C)C)cc2)cc1 [METHYLROSANILINE] | 23
CCOc1ccc(C2N(C)c3ccccc3N2C)cc1 | 115
Cc1ccc(C2CC(C(F)(F)F)n3nc(C(=O)N4CCN(C(c5ccccc5)c5ccccc5)CC4)cc3N2)cc1 (stereo not given) | 75
O=C(CCc1ccccc1)c1ccccc1OCC(O)CN1CCCCC1 (stereo not given) | 136
CN(C)c1ccc(-c2nc3cc(N)ccc3[nH]2)cc1 | 2
CN(C)CCCNCc1ccc(-c2ccc(F)c(Cl)c2)o1.Cl | 8
CCOc1ccc(-c2nonc2NC(=O)c2cccc(C)c2)cc1OCC | 19
